# assay-procedure: 19F-NMR kinetic analysis of solvolysis/defluoridation of AMBF3
# Assay type: physicochemical
# experimental-context: 19F NMR; read-out: solvolysis t1/2 (converted)
property-label: half-life (days)
Respond with the bare value in days.

Identify measured half-life associated with C#CC[N+](C)(C)C[B-](F)(F)F [alkynyl-AMBF3]
13
